Hello, the source for this data is the supplement of paper PMC9694430, in case you need it.

system: LOC_OS02G14120-cb001; experiment: thermal shift delta Tm vs DMSO control; higher = stronger stabilization (binding); settings: 12.5 µM; protein concentration 2 µM;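 also: purified Escherichia coli-expressed rice kinase domain construct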
Experimental Endpoint: thermal shift delta Tm (°C)

Molecule	Experimental Endpoint	Reported Value
O=C(Nc1c[nH]nc1-c1nc2ccc(CN3CCOCC3)cc2[nH]1)NC1CC1	thermal shift delta Tm	11.9
COc1ccc(COc2cc3oc(=O)c4cc(C(C)O)ccc4c3cc2OC)cc1 (centres undefined)	thermal shift delta Tm	1.04
C=CC(=O)Nc1cc(Nc2nccc(-c3cn(C)c4ccccc34)n2)c(OC)cc1N(C)CCN(C)C	thermal shift delta Tm	3.74
Oc1ccc(-c2nc(-c3ccc(F)cc3)c(-c3ccncc3)[nH]2)cc1	thermal shift delta Tm	0.99
